Entry source: the supplement of paper PMC6555819

tested on: PPARa:RXRa (NR concentration 270 nM, RXRa partner concentration 90 nM); experiment: PBM binding z-score (relative to random genomic background probes); higher = stronger binding; sequences stand for … in GC…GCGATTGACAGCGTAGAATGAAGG
Please respond with reported PBM binding z-score for every item in the list.

Qu. Query: PBM binding z-score; subject: GGAACGAGGGCATTCGAGGTGATAGCATGGCGAT
Ans. 2

Qu. Endpoint output: PBM binding z-score of CGTCCAAGGTGAAAGGTCAGTGAAGAGATGACGG . Value?
Ans. 6.01

Qu. PBM binding z-score for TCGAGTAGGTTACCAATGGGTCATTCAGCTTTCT ?
Ans. 2.66

Qu. Value lookup for PBM binding z-score; key = CCTCGGTGGACAGAAGGTCAGAGCTGTCCGCTTT
Ans. 1.75

Qu. Find the recorded PBM binding z-score belonging to CCGACTGGGCCAAGGTTACCATAACGCACAGCCA and report it.
Ans. 1.01

Qu. If you can, please state the reported PBM binding z-score value of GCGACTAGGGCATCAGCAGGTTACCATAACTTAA .
Ans. 0.802

Qu. Would you kindly share the measured PBM binding z-score for TCTTGTAGATCAGCAGGTTAAGAAAGCTGGCCAA ?
Ans. 0.684

Qu. What measured PBM binding z-score goes with CCTACTGGGCCATCAGGGCATTGATATCAACGTT ?
Ans. 0.0503

Qu. Endpoint output: PBM binding z-score of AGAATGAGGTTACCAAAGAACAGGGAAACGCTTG . Value?
Ans. 3.32

Qu. Request the reported PBM binding z-score associated with GCATATAGGTAATACAAGATGAAAGTCCGATTGT
Ans. 0.682

Qu. Bench note: what PBM binding z-score did ACTATTAGTTGAGACGAGGGCAACCGTTAGGTTG show?
Ans. 0.115

Qu. Quick one: PBM binding z-score for AATACAGGGTCATCCTAGGCCAGAGTACGCACAG ?
Ans. 6.4

Qu. Which PBM binding z-score reading was recorded for the sequence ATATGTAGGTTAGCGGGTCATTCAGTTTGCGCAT ?
Ans. 4.33

Qu. What PBM binding z-score value was documented for this sequence, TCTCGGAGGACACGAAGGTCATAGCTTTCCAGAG ?
Ans. 3.18

Qu. Quick one: PBM binding z-score for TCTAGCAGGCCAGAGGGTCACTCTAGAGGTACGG ?
Ans. 2.13

Qu. Data request, read-out PBM binding z-score, for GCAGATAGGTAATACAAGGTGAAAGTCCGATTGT
Ans. 1.04

Qu. Reported PBM binding z-score, sequence GATACAGGGTAAAGGCCAGAGTACGCGTATTGAT : ____
Ans. 2.46

Qu. Would you kindly share the measured PBM binding z-score for GCGACTGCGGCAAAGCAGGTTACCATAAGGTTGG ?
Ans. 0.0395

Qu. For TCTGCTAGGTCAACGATAGTCAGCTAATCTGCTA , what is its reported PBM binding z-score?
Ans. 3.14

Qu. Tell me the measured PBM binding z-score of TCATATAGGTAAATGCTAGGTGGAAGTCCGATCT , please.
Ans. 0.983

Qu. GET /values?readout=PBM binding z-score&item= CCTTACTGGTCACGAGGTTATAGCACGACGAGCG
Ans. 2.04

Qu. # PBM binding z-score lookup, item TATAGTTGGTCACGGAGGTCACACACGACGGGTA
Ans. 4.09

Qu. Any idea what PBM binding z-score was measured for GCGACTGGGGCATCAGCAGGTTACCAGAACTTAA ?
Ans. 1.04

Qu. # input sequence: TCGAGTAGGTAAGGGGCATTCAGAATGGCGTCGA ; wanted: its PBM binding z-score
Ans. 0.747

Qu. Name the recorded PBM binding z-score for CCTTACGGGTCAAGGTTAAAGCACGGGTGGTACG .
Ans. 5.08

Qu. Entry TCAAGTAGGTTAGGGGCATTCAGAATGGCGTCGA has what PBM binding z-score?
Ans. 2.19

Qu. I'd like to know its PBM binding z-score. The sequence in question is CCTCGGACGACAGAAGGTCAGAGCTGTCCGCTTT
Ans. 1.83

Qu. Look up PBM binding z-score for this sequence: TTACCAAGGTGAGGGTCGTTGATCCCTCTGTAGA
Ans. 1.88

Qu. Looking for the measured PBM binding z-score of ACTATTAGTAGAGACGAGGGCAACCGATAGGTTG , can you help?
Ans. 0.455

Qu. State the recorded PBM binding z-score for this entry: TCATGTAGGTAATACAGGTGAAAGTCGGCATCTA
Ans. 1.63

Qu. State the recorded PBM binding z-score for this entry: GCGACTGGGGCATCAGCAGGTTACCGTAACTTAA
Ans. 1.18

Qu. Need PBM binding z-score of TCTATTAGTTGAAGGGCAACCGCCGAGTCCGTTT , thanks.
Ans. 0.935

Qu. Which measured PBM binding z-score value corresponds to CAAACTAGGTCACAGAGTTCAAAGTCCGTGCGTA ?
Ans. 6.05

Qu. Need PBM binding z-score of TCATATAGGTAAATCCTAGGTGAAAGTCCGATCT , thanks.
Ans. 1.47

Qu. Reported PBM binding z-score, sequence TCTCCTAGGTCAACGATGGTCAGCTAATCTGCTA : ____
Ans. 3.76

Qu. Item TAGCCTAGGTCATGGGTCAGTATACCACGCGAAC has what recorded PBM binding z-score?
Ans. 4.77

Qu. Reported PBM binding z-score for CCTGCTAGGTCAGTGGTCAGCTAAAGCAGCTCGC : what is it?
Ans. 1.39

Qu. I have this sequence here, ATCGGAAGGTCGAAGGTGAGTATACCCACCCGAA , and I need its recorded PBM binding z-score.
Ans. 3.18

Qu. Recorded PBM binding z-score of ATCTCTAGGTAAGACTCAGTTCAGTGAGGAACGC , please.
Ans. 0.134

Qu. Value lookup for PBM binding z-score; key = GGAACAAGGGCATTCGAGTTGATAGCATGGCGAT
Ans. 1.16
